Test Summary: Pharmacokinetic study in mice
Test Context: C57BL/6, mouse, in vivo, po, 250 mg/kg, HL (half-life), mice, oral 250 mg/kg, mean ± SD
Outcome Measure: half-life (h)
Use h as the unit, but write only the number.

O=c1oc2ccccc2c(O)c1C(c1ccc(Cl)cc1)c1c(O)c2ccccc2oc1=O = 3.42

// next item, half-life requested
Per the record, `O=c1oc2ccccc2c(O)c1C(c1cccc(Cl)c1)c1c(O)c2ccccc2oc1=O` has half-life of 4.16

* * *

A collection of compounds and their measured CL/F
Test Summary: Pharmacokinetic study in mice
Test Context: C57BL/6, mouse, in vivo, po, 250 mg/kg
Use mL/min/kg as the unit, but write only the number.

O=c1oc2ccccc2c(O)c1C(c1cccc(Cl)c1)c1c(O)c2ccccc2oc1=O = 18.3

// next item, CL/F requested
Per the record, `O=c1oc2ccccc2c(O)c1C(c1ccc(Cl)cc1)c1c(O)c2ccccc2oc1=O` has CL/F of 1.67

* * *

Test Summary: Pharmacokinetic study in mice
Test Context: C57BL/6, mouse, in vivo, po, 250 mg/kg
A collection of molecules and their measured Tmax
Use h as the unit, but write only the number.

O=c1oc2ccccc2c(O)c1C(c1cccc(Cl)c1)c1c(O)c2ccccc2oc1=O = 10

Per the record, `O=c1oc2ccccc2c(O)c1C(c1ccc(Cl)cc1)c1c(O)c2ccccc2oc1=O` has Tmax of 6

* * *

Test Summary: Pharmacokinetic study in rats
Test Context: Sprague Dawley, rat, in vivo, po, 250 mg/kg
Outcome Measure: CL/F (mL/min/kg)
Use mL/min/kg as the unit, but write only the number.

O=c1oc2ccccc2c(O)c1C(c1cccc(Cl)c1)c1c(O)c2ccccc2oc1=O = 5.65

Per the record, `O=c1oc2ccccc2c(O)c1C(c1ccc(Cl)cc1)c1c(O)c2ccccc2oc1=O` has CL/F of 1.08

* * *

A collection of molecules and their measured AUC(0-inf)
Test Summary: Pharmacokinetic study in mice
Test Context: C57BL/6, mouse, in vivo, po, 250 mg/kg
Use µg·h/mL as the unit, but write only the number.

O=c1oc2ccccc2c(O)c1C(c1ccc(Cl)cc1)c1c(O)c2ccccc2oc1=O [compound 4] = 2750

Per the record, O=c1oc2ccccc2c(O)c1C(c1cccc(Cl)c1)c1c(O)c2ccccc2oc1=O [compound 3] has AUC(0-inf) of 909

* * *

Test Summary: Pharmacokinetic study in rats
Test Context: Sprague Dawley, rat, in vivo, po, 250 mg/kg
Outcome Measure: MRT last (h)
Use h as the unit, but write only the number.

O=c1oc2ccccc2c(O)c1C(c1cccc(Cl)c1)c1c(O)c2ccccc2oc1=O = 12.9

Per the record, `O=c1oc2ccccc2c(O)c1C(c1ccc(Cl)cc1)c1c(O)c2ccccc2oc1=O` has MRT last of 22.2

* * *

Test Summary: Pharmacokinetic study in rats
Test Context: Sprague Dawley, rat, in vivo, po, 250 mg/kg
A collection of compounds and their measured MRT inf
Use h as the unit, but write only the number.

O=c1oc2ccccc2c(O)c1C(c1ccc(Cl)cc1)c1c(O)c2ccccc2oc1=O [compound 4] = 26.8

// next item, MRT inf requested
Per the record, O=c1oc2ccccc2c(O)c1C(c1cccc(Cl)c1)c1c(O)c2ccccc2oc1=O [compound 3] has MRT inf of 14.5

* * *

A collection of compounds and their measured MRT last
Test Summary: Pharmacokinetic study in mice
Test Context: C57BL/6, mouse, in vivo, po, 250 mg/kg
Use h as the unit, but write only the number.

O=c1oc2ccccc2c(O)c1C(c1cccc(Cl)c1)c1c(O)c2ccccc2oc1=O = 10.5

Per the record, `O=c1oc2ccccc2c(O)c1C(c1ccc(Cl)cc1)c1c(O)c2ccccc2oc1=O` has MRT last of 10.1
